METHOD_SUMMARY: Partition coefficient, log P of the compound
Assay type: physicochemical
TEST_SETTINGS: octanol/water
Classify by measured logP: satisfied if it is equal to or exceeds 2, not satisfied if it is smaller.

# COMPOUND_STRING, CLASS_NAME
measured = [
    ("O=C1[C@@H]2C3C=CC(CC3)[C@@H]2C(=O)N1C12CC3CC(CC(C3)C1)C2", "satisfied"),
    ("CCCCCc1ccc(N2C(=O)c3cccnc3C2=O)cc1", "satisfied"),
]

As a next step, examine the compound that follows.
Can CCCCCc1ccc(N2C(=O)c3nccnc3C2=O)cc1 be said to have logP at or above 2? satisfied

###

Each entry below lists one item and its recorded Activity value.
Tested on: Neutrophil
METHOD_SUMMARY: Apoptotic activity in human blood neutrophils after 24 hrs
Assay type: functional
Design: concentration or dose not given beside the values
Numeric answer only, unit % assumed.

Answered examples (5):
# COMPOUND_STRING, Activity / %
measured = [
    ("O=C1c2cccnc2C(=O)N1C12CC3CC(CC(C3)C1)C2", 31.1),
    ("Cc1cccc(C)c1N1C(=O)[C@@H]2C3C=CC(CC3)[C@@H]2C1=O", 38.4),
    ("CCCCCc1ccc(N2C(=O)[C@@H]3C4C=CC(CC4)[C@@H]3C2=O)cc1", 39.11),
    ("CCCCCc1ccc(N2C(=O)c3nccnc3C2=O)cc1", 31.1),
    ("Cc1cccc(C)c1N1C(=O)c2cccnc2C1=O", 22.21),
]

Per the record, CC(C)c1cccc(C(C)C)c1N1C(=O)c2cccnc2C1=O has Activity of 19.1

Just so you know, measured Activity for CC(C)c1cccc(C(C)C)c1N1C(=O)c2nccnc2C1=O came out at 24.07

###

METHOD_SUMMARY: Binding affinity to DNA by methyl green/DNA displacement assay
TEST_SETTINGS: Homo sapiens
Label class 1 when C50 is strictly below 50 µg/mL; at or above that, label class 0.

Below, 5 molecules whose answers are already recorded.
# COMPOUND_STRING, CLASS_NAME
measured = [
    ("CCCCCc1ccc(N2C(=O)[C@@H]3C4C=CC(CC4)[C@@H]3C2=O)cc1", "class 1"),
    ("O=C1[C@@H]2C3C=CC(CC3)[C@@H]2C(=O)N1C12CC3CC(CC(C3)C1)C2", "class 0"),
    ("Cc1cccc(C)c1N1C(=O)c2cccnc2C1=O", "class 0"),
    ("CCCCCc1ccc(N2C(=O)c3nccnc3C2=O)cc1", "class 1"),
    ("Cc1cccc(C)c1N1C(=O)[C@@H]2C3C=CC(CC3)[C@@H]2C1=O", "class 0"),
]

Could you now consider this next molecule?
Item Cc1cccc(C)c1N1C(=O)c2nccnc2C1=O : C50 beneath 50 µg/mL, strictly? class 0

###

Tested on: Vero
METHOD_SUMMARY: Cytotoxicity against Vero cells
Assay type: cell-based
TEST_SETTINGS: Chlorocebus sabaeus
MEASURE: pIC50
API: returns pIC50 as number; meaning -log10 of concentration in mol/L.

Known results for molecules:
# MOLECULE, pIC50
rows = [
    ("O=C1[C@@H]2C3C=CC(CC3)[C@@H]2C(=O)N1c1ccc(C(F)(F)F)cc1", 4.12),
    ("O=C1c2ccccc2C(=O)N1c1ccccc1 [N-PHENYL-PHTHALIMIDE]", 4.09),
    ("Cc1cccc(C)c1N1C(=O)c2cccnc2C1=O", 4.70),
    ("O=C1c2nccnc2C(=O)N1c1ccc(C(F)(F)F)cc1", 4.10),
    ("O=C1c2cccnc2C(=O)N1c1ccc(C(F)(F)F)cc1", 4.06),
    ("CC(C)c1cccc(C(C)C)c1N1C(=O)c2nccnc2C1=O", 4.70),
]

Moving on to the next molecule.
// pIC50 (Vero) for O=C1[C@@H]2C3C=CC(CC3)[C@@H]2C(=O)N1Cc1ccc(Cl)cc1 = 4.29

###

Test system: Vero
METHOD_SUMMARY: Cytotoxicity against Vero cells
Format: cell-based
TEST_SETTINGS: Chlorocebus sabaeus
Parameter pIC50: see the listing below.
API: returns pIC50 as number; meaning -log10 of concentration in mol/L.

The examples below pair each entry with its known result.
# COMPOUND_STRING, EXPERIMENTAL_SYSTEM, pIC50
rows = [
    ("O=C1c2nccnc2C(=O)N1c1ccc(Cl)cc1", "Vero", 4.07),
    ("COc1ccc(CN2C(=O)[C@@H]3C4C=CC(CC4)[C@@H]3C2=O)cc1OC", "Vero", 4.20),
    ("O=C1[C@@H]2C3C=CC(CC3)[C@@H]2C(=O)N1CCc1ccccc1", "Vero", 4.06),
]

Please fill in: pIC50 reported for CC(C)(C)N1C(=O)c2nccnc2C1=O = 4.49

For CCCCCc1ccc(N2C(=O)[C@@H]3C4C=CC(CC4)[C@@H]3C2=O)cc1 the compound record lists pIC50 as 5.00

###

System: Neutrophil
METHOD_SUMMARY: Apoptotic activity in human blood neutrophils after 24 hrs
Type: functional
Parameters: concentration or dose not given beside the values
Okay, here is how we bin by Activity: class 0 = under 20%, class 1 = from 20% up to 30%, class 2 = 30% and over

Examples from the recorded data:
# COMPOUND_STRING, CLASS_NAME
data = [
    ("O=C1[C@@H]2C3C=CC(CC3)[C@@H]2C(=O)N1C12CC3CC(CC(C3)C1)C2", "class 2"),
    ("CC(C)(C)N1C(=O)c2cccnc2C1=O", "class 0"),
    ("O=c1c(O)c(-c2ccc(O)c(O)c2)oc2cc(O)cc(O)c12", "class 2"),
]

Field: class (Activity) — entry: CC(C)(C)N1C(=O)c2nccnc2C1=O class 0

# classify by Activity band: CCCCCc1ccc(N2C(=O)c3cccnc3C2=O)cc1 class 2

###

METHOD_SUMMARY: Partition coefficient, log P of the compound
Type: physicochemical
TEST_SETTINGS: octanol/water
Documented logP across a set of compounds
Keep the answer to the number alone.

The value of logP measured for the compound CC(C)(C)N1C(=O)[C@@H]2C3C=CC(CC3)[C@@H]2C1=O turned out to be 1.3

// CC(C)c1cccc(C(C)C)c1N1C(=O)[C@@H]2C3C=CC(CC3)[C@@H]2C1=O : logP value = 4.6

Input CC(C)c1cccc(C(C)C)c1N1C(=O)c2nccnc2C1=O . Output logP: 4.2

###

Property: IC50; scope: individual compounds
Tested on: Vero
METHOD_SUMMARY: Cytotoxicity against Vero cells
Assay type: cell-based
TEST_SETTINGS: Chlorocebus sabaeus
Lab book: enter the figure in µM, no units written.

Record excerpt, results attached:
# COMPOUND, MEASUREMENT
records = [
    ("COc1ccc(CN2C(=O)[C@@H]3C4C=CC(CC4)[C@@H]3C2=O)cc1", 67),
    ("O=C1[C@@H]2C3C=CC(CC3)[C@@H]2C(=O)N1c1ccc(Cl)cc1", 77),
    ("O=C1c2cccnc2C(=O)N1c1ccc(Cl)cc1", 92),
    ("CC(C)(C)N1C(=O)c2cccnc2C1=O", 33),
]

GET /value?item= CCCCCc1ccc(N2C(=O)c3nccnc3C2=O)cc1 &field=IC50 returns 16

Per the records, this compound ( C[C@@H](c1ccccc1)N1C(=O)[C@@H]2C3C=CC(CC3)[C@@H]2C1=O ) has IC50 equal to 49

Record C[C@@H](c1ccccc1)N1C(=O)c2cccnc2C1=O , field IC50: 92

The recorded IC50 for entry CCCCCc1ccc(N2C(=O)c3cccnc3C2=O)cc1 equals 18

###

Test system: Neutrophil
METHOD_SUMMARY: Apoptotic activity in human blood neutrophils after 24 hrs
Format: functional
Set-up: concentration or dose not given beside the values
Decide by Activity: equal to or exceeding 20% means MET, less means NOT MET.

Some entries whose results are on file:
# COMPOUND_STRING, CLASS_NAME
records = [
    ("O=C1c2nccnc2C(=O)N1C12CC3CC(CC(C3)C1)C2", "MET"),
    ("CC(C)c1cccc(C(C)C)c1N1C(=O)c2ccccc2C1=O", "NOT MET"),
    ("Cc1cccc(C)c1N1C(=O)c2nccnc2C1=O", "MET"),
    ("CC(C)c1cccc(C(C)C)c1N1C(=O)[C@@H]2C3C=CC(CC3)[C@@H]2C1=O", "MET"),
    ("CC(C)(C)N1C(=O)[C@@H]2C3C=CC(CC3)[C@@H]2C1=O", "NOT MET"),
]

In the following, a different compound is considered.
Hello, I need to know if O=C1c2ccccc2C(=O)N1C12CC3CC(CC(C3)C1)C2 has measured Activity not below 20%. Thanks! MET

Recorded values, source ChEMBL document CHEMBL1146369.
